target: MKK7 (Homo sapiens (Human), UniProt O14733)
Sequence (O14733 whole entry): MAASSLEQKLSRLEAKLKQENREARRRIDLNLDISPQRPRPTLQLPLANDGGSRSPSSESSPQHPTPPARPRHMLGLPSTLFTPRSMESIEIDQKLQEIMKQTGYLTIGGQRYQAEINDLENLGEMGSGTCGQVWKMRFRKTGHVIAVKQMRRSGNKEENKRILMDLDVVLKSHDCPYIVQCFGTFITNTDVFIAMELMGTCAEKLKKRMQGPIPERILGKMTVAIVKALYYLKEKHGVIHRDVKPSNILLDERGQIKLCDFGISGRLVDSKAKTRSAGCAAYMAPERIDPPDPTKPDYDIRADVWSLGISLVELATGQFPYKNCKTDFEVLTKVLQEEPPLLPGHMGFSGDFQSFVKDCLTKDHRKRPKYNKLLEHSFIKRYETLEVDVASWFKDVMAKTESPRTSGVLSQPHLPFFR
endpoint-name: log10 IC50 (log10 of the value in nM)
Scale: log10; quantity: IC50; unit before log: nM

As a guide, the following entries are already answered.
CN(C)C/C=C/C(=O)N1CCc2ccc(-c3n[nH]c4ccccc34)cc21    2.26
C=CC(=O)N1CCc2ccc(-c3n[nH]c4cc(C#N)ccc34)cc21    0.78

# input Requested read-out: log10 IC50. Entry: C=CC(=O)N1CCc2ccc(-c3n[nH]c4ccccc34)cc21
# output 1.28

# input # iterate: C=CC(=O)N1CCc2ccc(-c3n[nH]c4ccncc34)cc21
# output 1.48

# input # iterate: C/C=C/C(=O)N1CCc2ccc(-c3n[nH]c4ccccc34)cc21
# output 3.04
